Please provide measured Activity for the entries that follow.
Tested on: HMEC-1
Procedure details: Induction of apoptosis in human HMEC-1 cells assessed as late apoptotic cells at IC50 incubated for 72 hrs by Annexin V-FITC/PI staining based flow cytometric analysis (reference value: 4.7 %)
Format: functional
Provide only the numeric value, understood in %.

Enquiry: For the compound shown here, CC12C(=O)C(C)(C(c3ccccc3)=C1c1ccccc1)C1C(=O)N(CCCCN3CCN(c4ncccn4)CC3)C(=O)C12 (stereo unspecified) , give the reported Activity.
Return: 2.4

Enquiry: Let us now turn to COc1ccccc1N1CCN(CCCCN2C(=O)C3C(C2=O)C2(C)C(=O)C3(C)C(c3ccccc3)=C2c2ccccc2)CC1 (stereo unspecified)
Return: 1.8

Enquiry: Let us now turn to CC12C(=O)C(C)(C(c3ccccc3)=C1c1ccccc1)C1C(=O)N(CCCCN3CCN(c4ccccc4F)CC3)C(=O)C12 (stereo unspecified)
Return: 7.3

Enquiry: Let us now turn to CC12C(=O)C(C)(C(c3ccccc3)=C1c1ccccc1)C1C(=O)N(CCCCN3CCN(c4cccc(Cl)c4)CC3)C(=O)C12 (stereo unspecified)
Return: 7.8

Enquiry: Let us now turn to CC12C(=O)C(C)(C(c3ccccc3)=C1c1ccccc1)C1C(=O)N(CCCCN3CCN(c4ccccn4)CC3)C(=O)C12 (stereo unspecified)
Return: 1.4

Enquiry: Let us now turn to CC12C(=O)C(C)(C(c3ccccc3)=C1c1ccccc1)C1C(=O)N(CCCCN3CCN(c4ccccc4Cl)CC3)C(=O)C12 (stereo unspecified)
Return: 4.7

----------
Test system: HaCaT
Procedure details: Induction of apoptosis in human HaCaT cells at IC50 incubated for 72 hrs by Annexin V-FITC/PI staining based flow cytometric analysis
Format: functional, cell-based
Calls of active or inactive are those of the source. No cut-off for these calls is given here.
Property name: Activity

Before answering, review these 4 worked examples.
CC12C(=O)C(C)(C(c3ccccc3)=C1c1ccccc1)C1C(=O)N(CCCCN3CCN(c4ncccn4)CC3)C(=O)C12 (stereo not given)    inactive
CC12C(=O)C(C)(C(c3ccccc3)=C1c1ccccc1)C1C(=O)N(CCCCN3CCN(c4ccccn4)CC3)C(=O)C12 (stereo not given)    inactive
CC12C(=O)C(C)(C(c3ccccc3)=C1c1ccccc1)C1C(=O)N(CCCCN3CCN(c4ccccc4Cl)CC3)C(=O)C12 (stereo not given)    inactive
CC12C(=O)C(C)(C(c3ccccc3)=C1c1ccccc1)C1C(=O)N(CCCCN3CCN(c4cccc(Cl)c4)CC3)C(=O)C12 (stereo not given)    inactive

Now for another entry.
Enquiry: For the compound shown here, COc1ccccc1N1CCN(CCCCN2C(=O)C3C(C2=O)C2(C)C(=O)C3(C)C(c3ccccc3)=C2c2ccccc2)CC1 (stereo not given) , give the reported Activity.
Return: inactive

----------
Please provide measured Emax for the entries that follow.
Experimental system: 5-hydroxytryptamine receptor 1A (Rattus norvegicus)
Sequence (whole entry): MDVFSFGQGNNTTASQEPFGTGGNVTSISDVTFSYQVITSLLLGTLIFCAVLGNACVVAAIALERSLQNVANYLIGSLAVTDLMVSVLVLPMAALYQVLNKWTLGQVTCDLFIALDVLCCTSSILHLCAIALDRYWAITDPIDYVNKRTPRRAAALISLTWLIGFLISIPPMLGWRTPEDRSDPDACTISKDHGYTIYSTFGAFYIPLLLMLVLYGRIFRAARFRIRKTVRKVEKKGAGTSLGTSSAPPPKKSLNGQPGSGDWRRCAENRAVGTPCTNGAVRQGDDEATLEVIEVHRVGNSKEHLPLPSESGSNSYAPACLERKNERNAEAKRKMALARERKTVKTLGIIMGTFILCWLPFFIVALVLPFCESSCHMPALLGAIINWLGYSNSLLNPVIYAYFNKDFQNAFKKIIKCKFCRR
Procedure details: Agonist activity at Sprague-Dawley rat hippocampal membrane 5-HT1A receptor assessed as stimulation of [35S]GTPgammaS binding by measuring maximal efficacy measured after 90 mins by scintillation counter analysis relative to control
Format: functional, cell membranes
Settings: Hippocampus, filed as agonist
Provide only the numeric value, understood in %.

Enquiry: For the compound shown here, CCCN(CCC)C1CCc2cccc(O)c2C1 (stereo not drawn) , give the reported Emax.
Return: 148

Enquiry: Let us now turn to CC12C(=O)C(C)(C(c3ccccc3)=C1c1ccccc1)C1C(=O)N(CCCCN3CCN(c4ccccn4)CC3)C(=O)C12 (stereo not drawn)
Return: 168

Enquiry: Let us now turn to COc1ccccc1N1CCN(CCCCN2C(=O)C3C(C2=O)C2(C)C(=O)C3(C)C(c3ccccc3)=C2c2ccccc2)CC1 (stereo not drawn)
Return: 122
